The values you see were collected from patent US10251395B2.

# Test system: Avena fatua
# procedure-text: Pre-emergence herbicidal effect
# Type: in vivo
# test-context: Dosage 320 g/ha, scored visually after 3 weeks
Please mark 1.0 if the recorded AVEFA pre-emergence efficacy (herbicidal activity) is equal to or greater than 90%, and 0.0 if it falls below.

Use the examples below as a reference point.
| molecule | classification |
| --- | --- |
| Nc1nc(NC2CCc3sccc32)ncc1C(F)(F)F (racemic) [compound 215] | 0.0 |
| Cc1cc2c(s1)CCCC2Nc1ncc(SC(F)(F)F)c(C)n1 (racemic) [compound 80] | 0.0 |
| Nc1nc(NC2CCc3sc(Cl)cc32)ncc1C(F)(F)F (racemic) [compound 256] | 1.0 |
| Cc1cc2c(s1)CCCC2Nc1ncc(C(F)(F)F)c(N)n1 (racemic) [compound 257] | 1.0 |
| Nc1nc(NC2CCc3ccsc32)ncc1C(F)(F)F (racemic) [compound 29] | 1.0 |

q: Textbook exercise: given the entry Cc1cc2c(s1)CCCC2Nc1nc(N)c(Br)c(C(F)F)n1 (racemic) [compound 284] , state whether its AVEFA pre-emergence efficacy (herbicidal activity) is greater than or equal to 90%.
a: 0.0
